assay: in vitro; conditions: rat, L6 cells versus Trypanosoma cruzi Tulahuen C4
Description: Selectivity index, ratio of IC50 for rat L6 cells to IC50 for Trypanosoma cruzi Tulahuen C4
I'd appreciate it if you could supply selectivity ratio values for the items below.
The answer should be a number; do not append a unit.

The value of selectivity ratio measured for the molecule O=C(Cn1cnc([N+](=O)[O-])n1)Nc1cccc(OCc2ccccc2)c1 turned out to be 575

The value of selectivity ratio measured for the molecule O=C(Cn1cnc([N+](=O)[O-])n1)NCc1ccc(C(F)(F)F)cc1 turned out to be 133

The value of selectivity ratio measured for the molecule CN(C(=O)Cn1ccnc1[N+](=O)[O-])c1ccc(C(F)(F)F)cc1 turned out to be 3.8

The value of selectivity ratio measured for the molecule N#Cc1ccc(-c2ccc(NC(=O)Cn3cnc([N+](=O)[O-])n3)cc2)cc1 turned out to be 1190
